Biological target: truncated human CYP17A1 (Homo sapiens, UniProt P05093, C22K/P23T/R20A/R21K)
Sequence (P05093 with tags, fused parts or gaps limits assumed): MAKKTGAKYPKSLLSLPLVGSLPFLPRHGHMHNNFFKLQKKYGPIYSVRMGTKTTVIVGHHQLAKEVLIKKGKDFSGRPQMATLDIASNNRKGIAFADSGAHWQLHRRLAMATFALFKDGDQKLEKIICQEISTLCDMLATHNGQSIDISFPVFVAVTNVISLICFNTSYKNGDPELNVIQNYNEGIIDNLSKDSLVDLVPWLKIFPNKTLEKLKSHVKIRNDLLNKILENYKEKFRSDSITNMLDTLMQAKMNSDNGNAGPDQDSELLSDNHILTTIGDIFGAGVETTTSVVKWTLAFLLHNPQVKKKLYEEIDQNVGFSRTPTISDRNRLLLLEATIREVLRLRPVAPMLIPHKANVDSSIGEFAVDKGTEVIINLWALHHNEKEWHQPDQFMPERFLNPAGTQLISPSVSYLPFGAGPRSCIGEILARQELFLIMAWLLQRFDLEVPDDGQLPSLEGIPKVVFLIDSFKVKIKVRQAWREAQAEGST
Assay: Progesterone 17α-hydroxylation, HPLC separation with UV detection
Entries annotated with measured IC50
All answers are understood in nM, so give the number only.

Smiles Str: C[C@]12CC[C@H](O)CC1=CC[C@@H]1[C@@H]2CC[C@]2(C)C(c3cccnc3)=CC[C@@H]12
IC50, nM: 201

Consider the molecule C[C@]12CC[C@H](O)CC1=CC[C@@H]1[C@@H]2CC[C@]2(C)C(n3cnc4ccccc43)=CC[C@@H]12 and give its measured IC50.
503
